Measured MIC90 of individual entries
# System: M. avium complex (MAC)
# assay-name: MIC by microdilution method in 7H9 broth
# Type: cell-based
# run-parameters: Mycobacterium avium; MAC isolates; value in square brackets; read-out: MIC90
Express your answer in µg/mL, writing the number without its unit.

mol-smiles	assay-system	reported-endpoint	value-unit	assay-result
CO[C@H]1[C@@H](O)[C@H](n2ccc(=O)[nH]c2=O)O[C@@H]1[C@@H](O[C@H]1OC(C(=O)Nc2cccc(F)c2)=C[C@H](O)[C@@H]1O)C(N)=O	M. avium complex (MAC)	MIC90	µg/mL	8
CO[C@H]1[C@@H](O)[C@H](n2ccc(=O)[nH]c2=O)O[C@@H]1[C@@H](O[C@H]1OC(C(=O)Nc2ccc(OC(F)(F)F)cc2)=C[C@H](O)[C@@H]1O)C(N)=O	M. avium complex (MAC)	MIC90	µg/mL	8
CO[C@H]1[C@@H](O)[C@H](n2ccc(=O)[nH]c2=O)O[C@@H]1[C@@H](O[C@H]1OC(C(=O)Nc2ccc([N+](=O)[O-])cc2)=C[C@H](O)[C@@H]1O)C(N)=O	M. avium complex (MAC)	MIC90	µg/mL	4
CO[C@H]1[C@@H](O)[C@H](n2ccc(=O)[nH]c2=O)O[C@@H]1[C@@H](O[C@H]1OC(C(=O)N[C@H]2CCC[C@@H](C)NC2=O)=C[C@H](O)[C@@H]1O)C(N)=O	M. avium complex (MAC)	MIC90	µg/mL	16
CO[C@H]1[C@@H](O)[C@H](n2ccc(=O)[nH]c2=O)O[C@@H]1[C@@H](O[C@H]1OC(C(=O)Nc2ccc(C(F)(F)F)cc2)=C[C@H](O)[C@@H]1O)C(N)=O	M. avium complex (MAC)	MIC90	µg/mL	4

// next item, MIC90 requested
-- ask # input molecule: `CO[C@H]1[C@@H](O)[C@H](n2ccc(=O)[nH]c2=O)O[C@@H]1[C@@H](O[C@H]1OC(C(=O)Nc2ccc(F)c(F)c2F)=C[C@H](O)[C@@H]1O)C(N)=O` ; wanted: its MIC90
-- reply 4

---

# Tested on: M. avium complex (MAC)
# assay-name: MIC by microdilution method in 7H9 broth
# Assay type: cell-based
# run-parameters: Mycobacterium avium; MAC isolates; value in square brackets; read-out: MIC90
reported-endpoint: MIC90 (µg/mL)
Express your answer in µg/mL, writing the number without its unit.

The examples below pair each entry with its known result.
compound	assay-system	assay-result
COC(=O)C1=C[C@H](O)[C@H](O)[C@@H](O[C@@H](C(N)=O)[C@H]2O[C@@H](n3ccc(=O)[nH]c3=O)[C@H](O)[C@@H]2OC)O1	M. avium complex (MAC)	32
CO[C@H]1/C=C/O[C@@]2(C)Oc3c(C)c(O)c4c(O)c(c(/C=N/N5CCN(C)CC5)c(O)c4c3C2=O)NC(=O)/C(C)=C\C=C\[C@H](C)[C@H](O)[C@@H](C)[C@@H](O)[C@@H](C)[C@H](OC(C)=O)[C@@H]1C [RIF, rifampicin, reference compound]	M. avium complex (MAC)	1
CC[C@H]1OC(=O)[C@H](C)[C@@H](O[C@H]2C[C@@](C)(OC)[C@@H](O)[C@H](C)O2)[C@H](C)[C@@H](O[C@@H]2O[C@H](C)C[C@H](N(C)C)[C@H]2O)[C@](C)(OC)C[C@@H](C)C(=O)[C@H](C)[C@@H](O)[C@]1(C)O [CLA, clarithromycin, reference compound]	M. avium complex (MAC)	2
CO[C@H]1[C@@H](O)[C@H](n2ccc(=O)[nH]c2=O)O[C@@H]1[C@@H](O[C@H]1OC(C(=O)Nc2ccc(F)c(F)c2)=C[C@H](O)[C@@H]1O)C(N)=O	M. avium complex (MAC)	16
CCCCCCCCCC(=O)O[C@@H]1[C@H](OC)[C@@H]([C@@H](O[C@H]2OC(C(=O)N[C@H]3CCC[C@@H](C)NC3=O)=C[C@H](O)[C@@H]2O)C(N)=O)O[C@H]1n1ccc(=O)[nH]c1=O	M. avium complex (MAC)	2

-- ask # input compound: `CO[C@H]1[C@@H](O)[C@H](n2ccc(=O)[nH]c2=O)O[C@@H]1[C@@H](O[C@H]1OC(C(=O)Nc2ccc(Br)c(C)c2)=C[C@H](O)[C@@H]1O)C(N)=O` ; wanted: its MIC90
-- reply 4

-- ask # input compound: `CO[C@H]1[C@@H](O)[C@H](n2ccc(=O)[nH]c2=O)O[C@@H]1[C@@H](O[C@H]1OC(C(=O)Nc2ccc(F)c(C(F)(F)F)c2)=C[C@H](O)[C@@H]1O)C(N)=O` ; wanted: its MIC90
-- reply 8

-- ask # input compound: CC[C@@H](CO)NCCN[C@@H](CC)CO [EMB, ethambutol, reference compound] ; wanted: its MIC90
-- reply 16

-- ask # input compound: NCC[C@H](O)C(=O)N[C@@H]1C[C@H](N)[C@@H](O[C@H]2O[C@H](CN)[C@@H](O)[C@H](O)[C@H]2O)[C@H](O)[C@H]1O[C@H]1O[C@H](CO)[C@@H](O)[C@H](N)[C@H]1O [AMK, amikacin, reference compound] ; wanted: its MIC90
-- reply 16

---

Measured MIC of individual entries
# System: M. avium complex (MAC)
# assay-name: MIC by microdilution method in 7H9 broth
# Format: cell-based
# run-parameters: Mycobacterium avium, MAC strain 104; read-out: MIC
Express your answer in µg/mL, writing the number without its unit.

The examples below pair each entry with its known result.
molecule	value-unit	MIC
CO[C@H]1[C@@H](O)[C@H](n2ccc(=O)[nH]c2=O)O[C@@H]1[C@@H](O[C@H]1OC(C(=O)Nc2ccc(OC(F)(F)F)cc2)=C[C@H](O)[C@@H]1O)C(N)=O [RKS2241]	µg/mL	0.5
COC(=O)C1=C[C@H](O)[C@H](O)[C@@H](O[C@@H](C(N)=O)[C@H]2O[C@@H](n3ccc(=O)[nH]c3=O)[C@H](O)[C@@H]2OC)O1 [RS 120029]	µg/mL	32
CO[C@H]1[C@@H](O)[C@H](n2ccc(=O)[nH]c2=O)O[C@@H]1[C@@H](O[C@H]1OC(C(=O)Nc2ccc(C(F)(F)F)cc2)=C[C@H](O)[C@@H]1O)C(N)=O [RKS2033]	µg/mL	1

// next item, MIC requested
-- ask # input molecule: NCC[C@H](O)C(=O)N[C@@H]1C[C@H](N)[C@@H](O[C@H]2O[C@H](CN)[C@@H](O)[C@H](O)[C@H]2O)[C@H](O)[C@H]1O[C@H]1O[C@H](CO)[C@@H](O)[C@H](N)[C@H]1O [AMK, amikacin, reference compound] ; wanted: its MIC
-- reply 16

---

Measured MIC of individual entries
# Test system: M. avium complex (MAC)
# assay-name: MIC by microdilution method in 7H9 broth
# Assay type: cell-based
# run-parameters: Mycobacterium avium, MAC strain NIH C1-1; read-out: MIC

The examples below pair each entry with its known result.
compound	assay-system	MIC
CO[C@H]1[C@@H](O)[C@H](n2ccc(=O)[nH]c2=O)O[C@@H]1[C@@H](O[C@H]1OC(C(=O)Nc2ccc(F)c(F)c2)=C[C@H](O)[C@@H]1O)C(N)=O [SQ922]	M. avium complex (MAC)	> 32 µg/mL
CC[C@H]1OC(=O)[C@H](C)[C@@H](O[C@H]2C[C@@](C)(OC)[C@@H](O)[C@H](C)O2)[C@H](C)[C@@H](O[C@@H]2O[C@H](C)C[C@H](N(C)C)[C@H]2O)[C@](C)(OC)C[C@@H](C)C(=O)[C@H](C)[C@@H](O)[C@]1(C)O [CLA, clarithromycin, reference compound]	M. avium complex (MAC)	1 µg/mL
CC[C@@H](CO)NCCN[C@@H](CC)CO [EMB, ethambutol, reference compound]	M. avium complex (MAC)	4 µg/mL
CO[C@H]1[C@@H](O)[C@H](n2ccc(=O)[nH]c2=O)O[C@@H]1[C@@H](O[C@H]1OC(C(=O)Nc2ccc(F)c(F)c2F)=C[C@H](O)[C@@H]1O)C(N)=O [RKS2235]	M. avium complex (MAC)	4 µg/mL

// next item, MIC requested
-- ask // map CCCCCCCCCC(=O)O[C@@H]1[C@H](OC)[C@@H]([C@@H](O[C@H]2OC(C(=O)N[C@H]3CCC[C@@H](C)NC3=O)=C[C@H](O)[C@@H]2O)C(N)=O)O[C@H]1n1ccc(=O)[nH]c1=O [SQ641] to recorded MIC (system: M. avium complex (MAC))
-- reply 0.5 µg/mL

---

# System: M. avium complex (MAC)
# assay-name: MIC by microdilution method in 7H9 broth
# Format: cell-based
# run-parameters: Mycobacterium avium, 336 h, MAC isolates; 2 wk; read-out: MIC (range)
reported-endpoint: MIC

The examples below pair each entry with its known result.
In [3]: df
Out[3]:
                                   molecule  reported_endpoint     assay_result
0  CO[C@H]1[C@@H](O)[C@H](n2ccc(=O)[nH]c2=O)O[C@@H]1[C@@H](O[C@H]1OC(C(=O)Nc2ccc(F)c(C(F)(F)F)c2)=C[C@H](O)[C@@H]1O)C(N)=O                MIC  0.5 to 16 µg/mL
1  CO[C@H]1[C@@H](O)[C@H](n2ccc(=O)[nH]c2=O)O[C@@H]1[C@@H](O[C@H]1OC(C(=O)Nc2ccc(OC(F)(F)F)cc2)=C[C@H](O)[C@@H]1O)C(N)=O                MIC  0.5 to 16 µg/mL
2  CO[C@H]1[C@@H](O)[C@H](n2ccc(=O)[nH]c2=O)O[C@@H]1[C@@H](O[C@H]1OC(C(=O)Nc2ccc(F)c(F)c2F)=C[C@H](O)[C@@H]1O)C(N)=O                MIC     1 to 8 µg/mL
3  CC[C@@H](CO)NCCN[C@@H](CC)CO [EMB, ethambutol, reference compound]                MIC  0.5 to 32 µg/mL

// next item, MIC requested
-- ask # input molecule: `CO[C@H]1[C@@H](O)[C@H](n2ccc(=O)[nH]c2=O)O[C@@H]1[C@@H](O[C@H]1OC(C(=O)Nc2ccc([N+](=O)[O-])cc2)=C[C@H](O)[C@@H]1O)C(N)=O` ; wanted: its MIC
-- reply 0.5 to 8 µg/mL

Data provenance: patent US20090281054A1
